targetOrSystem: T1, cynomolgus monkey serum albumin (cynomolgus monkey, UniProt A2V9Z4 25-608)
T1 construct: Bought protein, immobilized on a CM5 chip by amine coupling; also called Cyno SA
testProtocol: SPR (Biacore 8K), albumin immobilized on CM5 chip, 25 C, 1:1 kinetic fit
measuredProperty: kon (M⁻¹ s⁻¹)
# unit: M⁻¹ s⁻¹ | format: bare number

// solved cases for kon follow
RLN Analog 2 (other, Single-chain fusion: VHH - (PGPA)8 L1 - RLN2 A chain - L2 - RLN2 B chain (desB1)) EVQLLESGGGLVQPGGSLRLSCAASGRYIDETAVAWFRQAPGKEREFVAGIGGGVDITYYADSVKGRFTISRDNSKNTLYLQMNSLRPEDTAVYYCAARPGRPLITSKVADLYPYWGQGTLVTVSSPGPAPGPAPGPAPGPAPGPAPGPAPGPAPGPAQLYSALANKCCHVGCTKRSLARFCGGGSGGSGGGSWMEEVIKLCGRELVRAQIAICGMSTWS | 1.2e+06
RLN Analog 4 (other, Single-chain fusion: VHH - (PGPQ)8 L1 - RLN2 B chain (desB1) - L2 - RLN2 A chain) EVQLLESGGGLVQPGGSLRLSCAASGRYIDETAVAWFRQAPGKEREFVAGIGGGVDITYYADSVKGRFTISRDNSKNTLYLQMNSLRPEDTAVYYCAARPGRPLITSKVADLYPYWGQGTLVTVSSPGPQPGPQPGPQPGPQPGPQPGPQPGPQPGPQSWMEEVIKLCGRELVRAQIAICGMSTWSGGGSGGSGGGQLYSALANKCCHVGCTKRSLARFC | 1.3e+06
RLN Analog 14 (other, Single-chain fusion: VHH - (PGPQ)8 L1 - RLN2 A chain (desA1-4) - L2 - RLN2 B chain (desB1)) EVQLLESGGGLVQPGGSLRLSCAASGRYIDETAVAWFRQAPGKGREFVAGIGGGVDITYYADSVKGRFTISRDNSKNTLYLQMNSLRPEDTAVYYCAARPGRPLITSKVADLYPYWGQGTLVTVSSPGPQPGPQPGPQPGPQPGPQPGPQPGPQPGPQALANKCCHVGCTKRSLARFCGGGSGGSGGGSWMEEVIKLCGRELVRAQIAICGMSTWS | 1.1e+06

Next binder, kon to be filled in.
Prompt: Fill in the blank: the reported kon of RLN Analog 7 (other, Single-chain fusion: VHH - (G4Q)5 L1 - RLN2 B chain (desB1) - L2 - RLN2 A chain) EVQLLESGGGLVQPGGSLRLSCAASGRYIDETAVAWFRQAPGKGREFVAGIGGGVDITYYADSVKGRFTISRDNSKNTLYLQMNSLRPEDTAVYYCAARPGRPLITSKVADLYPYWGQGTLVTVSSGGGGQGGGGQGGGGQGGGGQGGGGQSWMEEVIKLCGRELVRAQIAICGMSTWSGGGSGGSGGGQLYSALANKCCHVGCTKRSLARFC is ____.
Response: 2.1e+06
